- Tested on: Tov-21-G
- ASSAY TEXT: Primary qHTS to identify gynecologic anti-cancer compounds using libraries of approved drugs and bioactive compounds (AID 1345084); further: nearly all actives have a fitted effect of over 55% in size
- RUN PARAMETERS: Gynecologic cancer cell panel viability, ATPlite luminescence, 48 h; series mostly up to 57.5 µM
Inconclusive results are not listed. Active and inactive are the calls of the source. The call rests on the fitted dose curve; in most records, active means well fitted cell-killing curve with a large enough effect; inconclusive means small, poorly fitted or top-dose-only effect, or effect the other way; inactive means flat fitted curve, though single readings scatter.
Returns: one label drawn from active, inactive

Prompt line: Dear all, I need the recorded test outcome for Nc1ccc2c(c1)CN1C(=O)c3ccccc3C1=N2 , thank you.
Response line: active

Prompt line: # outcome recorded in this test, key = CCOC(=O)c1ccc(O)c(O)c1
Response line: inactive

Prompt line: Hey, what did the test say about CCCCCC(=O)O[C@]1(C(C)=O)CC[C@H]2[C@@H]3CCC4=CC(=O)CC[C@]4(C)[C@H]3CC[C@@]21C ?
Response line: inactive

Prompt line: Please indicate how the test categorized CCCC(=O)O[C@]1(C(=O)COC(=O)CC)CC[C@H]2[C@@H]3CCC4=CC(=O)CC[C@]4(C)[C@H]3[C@@H](O)C[C@@]21C .
Response line: inactive

Prompt line: What classification did CC(C)NCCCC1(C(N)=O)c2ccccc2-c2ccccc21 end up with in this test?
Response line: inactive

Prompt line: Which outcome was assigned to CC(=O)O[C@@H]1CC2C3CCc4cc(OC(=O)c5ccccc5)ccc4C3CCC2(C)[C@H]1OC(C)=O (stereo partly specified) in this test?
Response line: inactive

Prompt line: Which outcome was assigned to CCCCCOc1ccccc1/C(=C\SC)n1ccnc1 in this test?
Response line: inactive

Prompt line: Dear colleague, could you share the recorded outcome for Fc1ccc(C(c2ccc(F)cc2)N2CCNCC2)cc1 when you have a moment?
Response line: inactive

Prompt line: Please share the test call associated with O=C1CCCc2c(O)cccc21 .
Response line: inactive

Prompt line: Returns: the outcome recorded for Cc1cnc(NS(=O)(=O)c2ccc(N)cc2)nc1 in this assay.
Response line: inactive

Prompt line: Recorded test outcome, item c1ccc2c(c1)CCc1ccccc1N2
Response line: inactive
